Test: NCI Yeast Anticancer Drug Screen. Data for the rad50 strain (AID 155);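 also: 0% = growth of vehicle-only cultures of the same strain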
Conditions: S. cerevisiae rad50 strain growth inhibition; at 50.0 µM; active compounds read high
Compounds without any hit were thinned out: in the full panel of roughly 79,000, 15% have a hit.
Observation type: growth inhibition (%)
Numbers only, in %.

Compound: Cc1c(C(Cc2ccccc2N(C)C(=O)/C=C\C(=O)O)c2c[nH]c3ccccc23)c2ccccc2n1C (configuration not stated)
growth inhibition, %: 87.8
--
Compound: CC(C)(CN1CCCCC1)C(=O)CC(SCCS(=O)(=O)O)c1ccc(Br)cc1 (configuration not stated)
growth inhibition, %: 73.8

Could you report growth inhibition for every entry in the following list?
1. COC(=O)C1=C(C)NC(C)=C(C(=O)OC)C1c1cccc(/[N+]([O-])=C/c2ccccc2)c1
2. CC/C(=C(\c1ccccc1)c1ccc(OCCN(C)C)cc1)c1ccccc1
3. COC1C=COC2(C)Oc3c(C)c(O)c4c(c3C2=O)/C(=N/C2CCC(O)OC2C)C=C(NC(=O)/C(C)=C\C(=O)C2CC2C(O)C(C)C(O)C(C)C(OC(C)=O)C1C)C4=O (configuration not stated)
4. COc1cc(C2SCC(=O)N2c2ccc(-c3ccc(-n4c(-c5ccccc5)nc5ccccc5c4=O)cc3)cc2)cc(OC)c1OC (configuration not stated)
5. CC(C)OC(=O)Oc1ccccc1OC(=O)OC(C)C

1. 64.8
2. 90
3. 9.3
4. 25.9
5. 39.3

Take each entry in turn and give its growth inhibition.
1. O=C1C(Nc2ccccc2)=C(Oc2ccccc2)C(=O)c2ccccc21
2. CCCCCCCCCCCCCCCCCCNC
3. C=C(CN(C)C)C(=O)c1cc(C)ccc1C
4. C/C(=N/NC(=S)N1CCCCCC1)c1cccc(/C(C)=N\NC(=S)N2CCCCCC2)n1
5. Nc1nc(Cl)c(Cl)c(Cl)n1

1. 23.7
2. 68.5
3. 99.4
4. 90.8
5. 47.3

Cited source: PubChem BioAssay (NCI)
